- TARGET OR SYSTEM: T1, human NPRA (human, UniProt P16066 33-1061)
- T1 sequence (looked up): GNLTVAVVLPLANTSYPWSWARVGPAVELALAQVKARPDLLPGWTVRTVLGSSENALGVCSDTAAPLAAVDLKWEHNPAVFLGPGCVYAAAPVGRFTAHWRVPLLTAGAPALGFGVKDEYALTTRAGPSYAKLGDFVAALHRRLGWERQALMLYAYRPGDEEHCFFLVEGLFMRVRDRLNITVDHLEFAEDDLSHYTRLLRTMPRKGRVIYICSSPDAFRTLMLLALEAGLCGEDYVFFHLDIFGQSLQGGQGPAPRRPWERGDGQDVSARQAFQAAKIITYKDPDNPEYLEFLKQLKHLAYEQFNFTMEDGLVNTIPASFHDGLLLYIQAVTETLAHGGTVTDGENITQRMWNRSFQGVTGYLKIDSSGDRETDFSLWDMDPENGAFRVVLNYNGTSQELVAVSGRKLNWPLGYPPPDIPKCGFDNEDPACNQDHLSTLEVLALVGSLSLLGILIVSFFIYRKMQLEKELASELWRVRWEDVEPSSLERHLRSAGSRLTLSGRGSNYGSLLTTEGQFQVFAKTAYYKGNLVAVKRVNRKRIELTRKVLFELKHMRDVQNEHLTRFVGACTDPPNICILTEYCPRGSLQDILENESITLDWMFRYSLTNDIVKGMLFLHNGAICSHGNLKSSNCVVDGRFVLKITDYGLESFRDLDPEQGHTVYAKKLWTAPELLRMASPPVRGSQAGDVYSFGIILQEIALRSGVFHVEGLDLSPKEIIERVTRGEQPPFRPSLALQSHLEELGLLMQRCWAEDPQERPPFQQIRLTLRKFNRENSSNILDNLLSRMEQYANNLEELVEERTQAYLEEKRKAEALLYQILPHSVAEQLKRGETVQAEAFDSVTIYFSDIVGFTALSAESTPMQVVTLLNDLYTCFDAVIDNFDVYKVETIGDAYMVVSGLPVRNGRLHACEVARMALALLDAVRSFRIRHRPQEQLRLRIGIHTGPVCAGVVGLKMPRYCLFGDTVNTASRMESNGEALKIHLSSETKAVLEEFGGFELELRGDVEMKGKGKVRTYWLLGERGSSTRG
- PROTOCOL TEXT: cell-based or functional assay
Numbered stars: 1 amine (or outer) side, 2 acyl side, 3 side chain; on linkers, the order of the positions; unused ones are H or OH. Bridge positions count the residues as written; N and C are the ends. Square brackets hold non-standard residues; d marks the D form. * marks the point of attachment. thioacetal = thioacetal linkage between two cysteines (intrachain bond at the bracketed Cys); C20 diacid = O=C(O)CCCCCCCCCCCCCCCCCCC(=O)*; γGlu = O=C(O)[C@H](CCC(=O)[*:2])N[*:1]; Dap = NC[C@H](N)C(=O)O; βAla = NCCC(=O)O
ASSAY READOUT: cGMP Assay (EC50, pM) w/BSA, hNPRA
The response must be a number in pM with no trailing unit.

The following binders have reported results that may help.
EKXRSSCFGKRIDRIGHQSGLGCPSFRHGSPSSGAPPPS (N-terminus acylated with HOOC-(CH2)18-CO-(γGlu)-; (AEEA)8 after EKEKEKG; βAla; thioacetal linkage between the two bracketed Cys; C-terminal amide) [HOOC-(CH2)18-CO-(γGlu)-EKEKEKG-(AEEA)8-EK-βAla-RSS[CFGKRIDRIGHQSGLGC]PSFRHGSPSSGAPPPS-NH2] :: 10000
{C20 diacid-γGlu}-EKEKEKGEK[βAla]RSSCFGKRIDRIGHYSGLGCPSFRHGSPSSGAPPPS-NH2 (bridge 14-30 via thioacetal) [HOOC-(CH2)18-CO-(γGlu)-EKEKEKGEK-βAla-RSS[CFGKRIDRIGHYSGLGC]PSFRHGSPSSGAPPPS-NH2] :: 11600
SXRRSSCFGKRIDRIGHYSGLGCPSFRHGSPSSGAPPPS (N-terminus acylated with HOOC-(CH2)18-CO-(γGlu)-; PEG24 after EKEKEKG; 4Pal; thioacetal linkage between the two bracketed Cys; C-terminal amide) [HOOC-(CH2)18-CO-(γGlu)-EKEKEKG-PEG24-S-4Pal-RRSS[CFGKRIDRIGHYSGLGC]PSFRHGSPSSGAPPPS-NH2] :: 2830
SXRRSSCFGKRIDRIGHQSGLGCPSFRHGGKSSGAPPPS (N-terminus acylated with HOOC-(CH2)18-CO-(γGlu)-; PEG24 after EKEKEKG; 4Pal; thioacetal linkage between the two bracketed Cys; C-terminal amide) [HOOC-(CH2)18-CO-(γGlu)-EKEKEKG-PEG24-S-4Pal-RRSS[CFGKRIDRIGHQSGLGC]PSFRHGGKSSGAPPPS-NH2] :: 2560

Data request: If you can, please state the reported cGMP Assay (EC50, pM) w/BSA, hNPRA value of EKPRSSCFGKRIDRIGHYSGLGCPSFRHGSPSSGAPPPS (N-terminus acylated with HOOC-(CH2)18-CO-(γGlu)-; (AEEA)6 after EKEKEKG; thioacetal linkage between the two bracketed Cys; C-terminal amide) [HOOC-(CH2)18-CO-(γGlu)-EKEKEKG-(AEEA)6-EKPRSS[CFGKRIDRIGHYSGLGC]PSFRHGSPSSGAPPPS-NH2] .
Data returned: 6380

Data request: Please report the recorded cGMP Assay (EC50, pM) w/BSA, hNPRA for {C20 diacid-γGlu}-EKEKEKGEKPRSSCFGKRIDRIGRYSGLGCPSFRHGSPSSGAPPPS-NH2 (bridge 14-30 via thioacetal) [HOOC-(CH2)18-CO-(γGlu)-EKEKEKGEKPRSS[CFGKRIDRIGRYSGLGC]PSFRHGSPSSGAPPPS-NH2] .
Data returned: 11700

Data request: Quick one: cGMP Assay (EC50, pM) w/BSA, hNPRA for {C20 diacid-γGlu}-EKEKEKGEKPRSSCFGG[Dap]IDRIGHYSGLGCPSFRHGSPSSGAPPPS-NH2 (bridge 14-30 via thioacetal) [HOOC-(CH2)18-CO-(γGlu)-EKEKEKGEKPRSS[CFGG-Dap-IDRIGHYSGLGC]PSFRHGSPSSGAPPPS-NH2] ?
Data returned: 1.41e+06

Data request: Item under review: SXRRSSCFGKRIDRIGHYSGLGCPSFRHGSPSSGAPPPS (N-terminus acylated with HOOC-(CH2)18-CO-(γGlu)-; (AEEA)8 after EKEKEKG; 4Pal; thioacetal linkage between the two bracketed Cys; C-terminal amide) [HOOC-(CH2)18-CO-(γGlu)-EKEKEKG-(AEEA)8-S-4Pal-RRSS[CFGKRIDRIGHYSGLGC]PSFRHGSPSSGAPPPS-NH2] . Reported cGMP Assay (EC50, pM) w/BSA, hNPRA?
Data returned: 3770
